- measurement notes: Lipophilicity, log D of the compound by gradient HPLC at pH 3.0
- Format: physicochemical
- condition context: buffer

smiles input	chromatographic logD
CC(C)(C)c1cc(C(=O)Nc2nc(CNS(C)(=O)=O)cs2)n(Cc2ccccc2)n1	3.7
CC(C)(C)c1cc(C(=O)Nc2cccnc2)n(Cc2ccccc2)n1	3.5
CC(C)(C)c1cc(C(=O)Nc2nc(CO)cs2)n(Cc2ccccc2)n1	3.5
COc1ccc(C(=O)Nc2nc(CN)cs2)cc1	0.9
NCc1csc(NC(=O)c2ccccc2)n1	0.7
CNCc1csc(NC(=O)c2cc(C(C)(C)C)nn2Cc2ccccc2)n1	2.6
CC(C)(C)c1cc(C(=O)Nc2ccncc2)n(Cc2ccccc2)n1	2.6
NCc1csc(NC(=O)c2ccccn2)n1	0.3
NCc1csc(NC(=O)c2cc3ccccc3[nH]2)n1	1.1
NCc1csc(NC(=O)c2cccnn2)n1	0

----------
As shown below, each of these compounds has a reported solubility kinetic value.
- measurement notes: Kinetic solubility of the compound by nephelometry at pH 6.5
- Format: physicochemical
- condition context: buffer, read-out: Kinetic_solubility

smiles input	modifier sign	solubility kinetic [µg/mL]
NCc1csc(NC(=O)c2ccccn2)n1	>	100
CC(C)(C)c1cc(C(=O)Nc2cccnc2)n(Cc2ccccc2)n1	=	6.3
CN(C)Cc1csc(NC(=O)c2cc(C(C)(C)C)nn2Cc2ccccc2)n1	=	25
NCc1csc(NC(=O)c2ccc(Cl)cc2)n1	=	25
Cn1nc(C(C)(C)C)cc1C(=O)Nc1nc(CN)cs1	=	50
NCc1csc(NC(=O)c2cccnn2)n1	=	50
NCc1csc(NC(=O)c2cnn[nH]2)n1	>	100
CC(C)(C)c1cc(C(=O)Nc2nc(CNS(C)(=O)=O)cs2)n(Cc2ccccc2)n1	=	3.1
CC(C)(C)c1cc(C(=O)Nc2ccncc2)n(Cc2ccccc2)n1	=	6.3
NCc1csc(NC(=O)c2ccn[nH]2)n1	>	100
NCc1csc(NC(=O)c2ncccn2)n1	>	100
NCc1csc(NC(=O)c2cc3ccccc3[nH]2)n1	=	25

----------
- measurement notes: Lipophilicity, log D of the compound by gradient HPLC at pH 7.4
- Type: physicochemical
- condition context: buffer
As shown below, each of these compounds has a reported chromatographic logD value.

smiles input	chromatographic logD
CC(C)(C)c1cc(C(=O)Nc2ccncc2)n(Cc2ccccc2)n1	4
COc1ccc(C(=O)Nc2nc(CN)cs2)cc1	1.2
CC(=O)NCc1csc(NC(=O)c2cc(C(C)(C)C)nn2Cc2ccccc2)n1	3.3
CC(C)(C)c1cc(C(=O)Nc2nc(CN)cs2)n(Cc2ccccc2)n1	3.5
NCc1csc(NC(=O)c2cc3ccccc3n2Cc2ccccc2)n1	3
NCc1csc(NC(=O)c2cc3ccccc3[nH]2)n1	1.4
NCc1csc(NC(=O)c2ncccn2)n1	-0.1

----------
As shown below, each of these molecules has a reported solubility kinetic value.
- measurement notes: Kinetic solubility of the compound by nephelometry at pH 2.0
- Assay type: physicochemical
- condition context: buffer, read-out: Kinetic_solubility
recorded metric: solubility kinetic

smiles input	recorded metric	reported
Cn1nc(C(C)(C)C)cc1C(=O)Nc1nc(CN)cs1	solubility kinetic	> 100 µg/mL
Cc1csc(NC(=O)c2cc(C(C)(C)C)nn2Cc2ccccc2)n1	solubility kinetic	< 1.6 µg/mL
CN(C)Cc1csc(NC(=O)c2cc(C(C)(C)C)nn2Cc2ccccc2)n1	solubility kinetic	> 100 µg/mL
CC(C)(C)c1cc(C(=O)Nc2cccnc2)n(Cc2ccccc2)n1	solubility kinetic	> 100 µg/mL
COc1ccc(C(=O)Nc2nc(CN)cs2)cc1	solubility kinetic	50 µg/mL

Cited source for all entries: ChEMBL document CHEMBL1914447
